test system: JAK; assay: Biochemical Kinase Assay Protocol (JAK); conditions: compound list; + = noted target activity, number of * = preference
Quantity: Activity Note: JAK

{"columns": ["Smiles notation", "Observed value"],
 "data": [
  ["CCC(CC)Nc1nc(Nc2cc(C)c3c(c2)COB3O)ncc1C", "JAK+***"],
  ["OB1OCc2cc(Nc3ncc(Cl)c(NC4CCCC4)n3)cc(C(F)(F)F)c21", "JAK+***"]
]}

###

system: JAK; assay: Biochemical Kinase Assay Protocol (JAK); conditions: compound list; + = noted target activity, number of * = preference
Quantity: Activity Note: JAK

Would you please look over these solved cases?
{"columns": ["Molecule", "System", "Quantity", "Observed value"],
 "data": [
  ["CCc1cc(Nc2nccc(NC3CCCC3)n2)cc2c1B(O)OC2", "JAK", "Activity Note: JAK", "JAK+**"],
  ["Cc1cnc(Nc2ccc3c(c2)B(O)OC3)nc1Nc1cccc(S(C)(=O)=O)c1", "JAK", "Activity Note: JAK", "JAK+*"],
  ["Cc1cnc(Nc2ccc3c(c2)B(O)OC3)nc1NC1CCC(C)CC1 (centres unmarked)", "JAK", "Activity Note: JAK", "JAK+**"],
  ["Cc1cnc(Nc2ccc3c(c2F)B(O)OC3)nc1Nc1cccc(S(C)(=O)=O)c1", "JAK", "Activity Note: JAK", "JAK+*"],
  ["CCC(CC)Nc1nc(Nc2ccc3c(c2)C(C)OB3O)ncc1C (centres unmarked)", "JAK", "Activity Note: JAK", "JAK+***"]
]}

Incoming: Using known records, supply Activity Note: JAK for Cc1cnc(Nc2ccc3c(c2)B(O)OC3)nc1NC1CCCCC1
Outgoing: JAK+*

Incoming: Using known records, supply Activity Note: JAK for Cc1cnc(Nc2ccc3c(c2)CCOB3O)nc1NC1CCCC1
Outgoing: JAK+***

Incoming: Using known records, supply Activity Note: JAK for Cc1cnc(Nc2cc(Cl)c3c(c2)C(C)(C)OB3O)nc1Nc1ccccc1
Outgoing: JAK+***
